- SYSTEM NAME: cGAS (recombinant SUMO-mcGAS) (Mus musculus)
- Construct: product read by BioSTING
- Sequence (Q8C6L5 whole entry): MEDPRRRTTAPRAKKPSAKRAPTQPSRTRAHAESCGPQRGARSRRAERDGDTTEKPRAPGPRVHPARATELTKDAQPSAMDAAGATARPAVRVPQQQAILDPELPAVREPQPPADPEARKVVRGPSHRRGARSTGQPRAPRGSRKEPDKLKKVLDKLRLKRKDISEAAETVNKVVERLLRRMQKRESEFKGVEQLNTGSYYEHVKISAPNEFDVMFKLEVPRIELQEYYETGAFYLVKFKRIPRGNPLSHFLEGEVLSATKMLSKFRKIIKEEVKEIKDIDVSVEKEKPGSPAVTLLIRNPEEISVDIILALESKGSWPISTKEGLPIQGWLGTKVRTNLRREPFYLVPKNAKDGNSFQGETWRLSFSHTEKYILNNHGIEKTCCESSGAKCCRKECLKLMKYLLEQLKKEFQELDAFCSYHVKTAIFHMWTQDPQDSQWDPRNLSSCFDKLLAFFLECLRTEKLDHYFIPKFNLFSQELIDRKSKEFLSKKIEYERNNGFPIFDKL
- TEST SUMMARY: cGAS activity assay measuring 2′3′-cGAMP production using BioSTING
- RUN CONDITIONS: fixed cGAS; 250 μM ATP, 250 μM GTP, 50 ng ISD; 37° C.
MEASURE: IC50

* O=C(NC1CCCCC1C(=O)O)c1cnn2c(O)cc(-c3ccccc3)nc12 (stereo not shown) | ~12 µM
